# Test system: FXN mRNA
# experiment: Screen of epigenetic inhibitors in GM0321 normal fibroblasts, FXN RNA levels
# Assay type: cell-based, human
# condition-summary: GM0321 normal fibroblasts, 1 uM inhibitor, 3 days of treatment
Where a name gives a salt, the structure may show the parent alone.
endpoint: FXN mRNA fold change, 321B 1 uM
Just the number, please.

Observe how each entry below is paired with its result.
NC(=O)[C@H](CCCN=C(N)CCl)NC(=O)c1ccccc1	0.9432
COc1ccccc1S(=O)(=O)Nc1ccc2c(c1)CN(C)C(=O)N2	0.9577
CCCCCOc1ccc(/C=C\c2cccc(O)c2C(=O)O)cc1	0.7796
CC(C)(C)OC(=O)Nc1ccc(-c2cc(C(=O)NCCCCCCC(=O)NO)no2)cc1	0.3592
CN(C)c1ccc(C(=O)NCCCCCC(=O)NO)cc1	0.5049

Input line: Please indicate recorded FXN mRNA fold change, 321B 1 uM of "COc1ccc(Cn2ccc3ccc(C(=O)NO)cc32)cc1" measured with FXN mRNA.
Output line: 0.9743

Input line: Using FXN mRNA as the test system, report measured FXN mRNA fold change, 321B 1 uM of Nc1nccc2c1ncn2C1C=C(CO)C(O)C1O (stereo not drawn) .
Output line: 0.2641

Input line: Report its FXN mRNA fold change, 321B 1 uM with FXN mRNA as the test system: "O=C(CCCCCCC(=O)Nc1ccc(I)cc1)NO"
Output line: 0.668

Input line: Under FXN mRNA: report FXN mRNA fold change, 321B 1 uM of "CN1CCc2c(c3ccccc3n2Cc2ccc(C(=O)NO)cc2)C1" .
Output line: 0.8993

Input line: Provide FXN mRNA fold change, 321B 1 uM, tested on FXN mRNA, for "COCCCn1c(N)c(C(=O)NC2CCCC2)c2nc3ccccc3nc21" .
Output line: 0.9828

Input line: Param request: FXN mRNA fold change, 321B 1 uM | system FXN mRNA | item O=C(Nc1ccc(Cl)cc1)C1CCCN(C(=O)c2cc(C(F)(F)F)cc(C(F)(F)F)c2)C1 (stereo not drawn)
Output line: 0.8325

Input line: Please look at Cc1ccc(NC(=O)CCCCCC(=O)Nc2ccccc2N)cc1 [Pimelic Diphenylamide 106] and tell me its recorded FXN mRNA fold change, 321B 1 uM on FXN mRNA.
Output line: 0.694

Input line: Fetch value of FXN mRNA fold change, 321B 1 uM on FXN mRNA for O=C(O)CCNc1cc(N2CCc3ccccc3CC2)nc(-c2ccccn2)n1 [GSK-J1 (sodium salt)] .
Output line: 0.9779

Input line: Fill in FXN mRNA fold change, 321B 1 uM for CCOC(=O)CCNc1cc(N2CCc3ccccc3CC2)nc(-c2ccccn2)n1.Cl [GSK-J4 (hydrochloride)] tested with FXN mRNA.
Output line: 1.002

Input line: Quote FXN mRNA fold change, 321B 1 uM with test system FXN mRNA for "COC(=O)CNC(=O)C(=O)OC"
Output line: 0.7317
